meta.source: PubChem BioAssay

# measurement-protocol: survival rescue of mitochondrial mutant cells in low glucose, primary screen, MELAS cybrids, Rieske KO mouse fibroblasts, CellTiter-Glo (AID 1508586);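 also: z relative to plate mean and SD of compound and empty wells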
# test-context: MELAS cybrid survival, CellTiter-Glo 48 h, hits give high values
measure-name: z-score
Number only, please.

Solved entries:
compound: COc1cc2ncn(-c3cc(O[C@@H](C)c4ccccc4Cl)c(C(N)=O)s3)c2cc1OC
value: -0.552
--
compound: CCN1CCC(CC(=O)NC2NNC3NNC(c4cccc(F)c4F)CC32)CC1 (stereo not given)
value: -0.762
--
compound: Cc1ccc(NC(=O)CC2CC2)cc1-c1ccc(C(=O)NCC2CC2)cc1
value: -0.893
--
compound: O=C1NC(=O)C(c2ccccc2Cl)=C1Nc1cccc(O)c1
value: -0.289
--
compound: NC(=O)c1cccc(Nc2nccc(Nc3cccc(F)c3)n2)c1
value: -0.778

The recorded z-score for entry O=C1N=c2ccc(N=Cc3c(O)[nH]c4ccccc34)cc2=N1 equals 1.49

Record CC[C@H](C)C(=O)O[C@H]1C[C@H](O)C=C2C=C[C@H](C)[C@H](CC[C@@H](O)C[C@@H](O)CC(=O)O)[C@H]21 , field z-score: -0.583

Notebook: CCOc1nccc2c1nc(-c1nonc1N)n2CC , z-score read as -0.642

response.value for Fc1cccc(COc2ccc(Nc3ncnc4sc(-c5ccco5)cc34)cc2Cl)c1 (field: z-score) = -0.906

// Cc1cc(Cl)cc2c(N=Nc3ccc(S(N)(=O)=O)cc3)c(O)[nH]c12 : z-score value = 0.0201

Briefly, z-score measured for COc1cc2c(cc1Nc1nc(Nc3ccsc3C(N)=O)c3cc[nH]c3n1)N(C(=O)CN(C)C)CCC2 : 2.79

get_value(item= CCn1c(-c2nonc2N)nc2c(N3CCCC3)nccc21 , readout=z-score) returns 0.113

Looking up CC1(C)CC(n2cnc(-c3ccc(F)cc3)c2-c2ccnc(N)n2)CC(C)(C)N1 , I found its z-score recorded as -0.417

z-score recorded for this compound, CC(=O)Nc1cccc(C#Cc2cncnc2Nc2ccc(OCc3cccc(F)c3)c(Cl)c2)c1 , is -0.744

Measured z-score of CNC(=O)c1cccc(C#Cc2cncnc2Nc2ccc(OCc3cccc(F)c3)c(Cl)c2)c1 : -1.16

// sample CCn1c(-c2nonc2N)nc2c(C#CC(C)(C)O)nc(OC[C@H](N)c3ccccc3)cc21 , its z-score was -0.101

Per the record, CC1(C)O[C@@H]2C[C@H]3[C@@H]4C[C@H](F)C5=CC(=O)C=C[C@]5(C)[C@H]4[C@@H](O)C[C@]3(C)[C@]2(C(=O)CO)O1 has z-score of -0.397

compound CC1=C(C(=O)Nc2ccc3[nH]ncc3c2)C(c2ccc3ccccc3c2)CC(=O)N1 (stereo not given) , z-score observed: 0.693

In plain terms, CC(C)COC(=O)c1ccc2[nH]c(O)c(C=Nc3ccc(S(N)(=O)=O)cc3)c2c1 has a documented z-score of -0.896

The measured z-score associated with COc1cccc(-n2ncc3c(N/N=C/c4ccncc4)ncnc32)c1 reads -0.213

---

// GLP1 secretion stimulation lookup, one value per entry
# measurement-protocol: glucagon-like peptide 1 release enhancers, primary assay, NCI-H716 cell line, NPC library (AID 1117341); also: reference of the scale not given here
# test-context: NCI-H716 cells, at 10 µM, hits give high values
Please reply with the bare figure in % and do not write the unit itself.

molecule: CCN(CC)CCOC(=O)C1(C2CCCCC2)CCCCC1
scale-unit: %
GLP1 secretion stimulation: 5.4

molecule: C=C1C(=C/C=C2\CCC[C@]3(C)[C@@H]([C@H](C)/C=C/[C@@H](O)C4CC4)CC[C@@H]23)C[C@@H](O)C[C@@H]1O
scale-unit: %
GLP1 secretion stimulation: 3.9

molecule: O=C(c1ccccc1)c1ccccc1
scale-unit: %
GLP1 secretion stimulation: 2.4

Measured GLP1 secretion stimulation of OCCCc1ccccc1 : 4.3

GLP1 secretion stimulation measured on CC1(C)OC(=O)Nc2ccc(Br)cc21 = -2

Data point: Cc1cccc(C)c1OCC(=O)N[C@@H](Cc1ccccc1)[C@@H](O)C[C@H](Cc1ccccc1)NC(=O)[C@H](C(C)C)N1CCCNC1=O ; GLP1 secretion stimulation = 1.5

Notebook: CC(C)(Cc1c[nH]c2ccccc12)NCC(O)COc1ccccc1C#N (stereo unspecified) , GLP1 secretion stimulation read as 3.9

get_value(item= Cc1cccc(C)c1NC(=O)CN(CC(=O)O)CC(=O)O , readout=GLP1 secretion stimulation) returns 1.6
